Data provenance is ChEMBL document CHEMBL4739717.

- PROTOCOL_NOTES: Induction of chondrogenesis in human MSC assessed as maximum activity at 61.73 nM incubated for 6 days by rhodamine B and Nile red staining based imaging analysis relative to control
- Format: functional
- STATED_CONDITIONS: BMMSC, 144 h, time 6 day
Would you please tag the item True when its Emax at 0.06173 µM is 50% or above, and False when it is below?

Asked: Test whether the compound "CC(C)C(=O)Nc1cncc(-c2ccc3[nH]nc(-c4nc5c(-c6cccnc6)ccnc5[nH]4)c3n2)c1" records Emax at 0.06173 µM of 50% or higher.
Given back: False

* * *

- PROTOCOL_NOTES: Effect on Wnt signaling pathway in human SW480 cells harbouring TCF/LEF luciferase reporter gene and SP5-Luc reporter gene incubated for 36 to 48 hrs by luminescence assay
- Type: cell-based
pEC50: −log10 of the molar value.
Would you please tag the item condition met when its pEC50 is 6 or above, and condition not met when it is below?

Study these solved cases before continuing.
{"ITEM_SMILES": "O=C(Nc1cc2cc(-c3cncc(NCC4(F)CNC4)n3)ncc2cn1)C1CC1", "LABEL_VALUE": "condition met"}
{"ITEM_SMILES": "Cc1n[nH]c2cc(F)c(-c3cncc(O[C@H]4CCNC[C@@H]4F)n3)cc12", "LABEL_VALUE": "condition met"}
{"ITEM_SMILES": "O=C(Nc1cncc(-c2cc3c(-c4cc5cccnc5[nH]4)n[nH]c3cn2)c1)C1CC1", "LABEL_VALUE": "condition not met"}
{"ITEM_SMILES": "Oc1cncc(-c2ccc3[nH]nc(-c4nc5c(-c6cccc(F)c6)cncc5[nH]4)c3n2)c1", "LABEL_VALUE": "condition not met"}
{"ITEM_SMILES": "c1cc2[nH]c(-c3n[nH]c4ccc(-c5cncc(CN6CCCCC6)c5)cc34)cc2c(N2CCCCC2)n1", "LABEL_VALUE": "condition not met"}
{"ITEM_SMILES": "COc1cccc(-c2cncc3[nH]c(-c4n[nH]c5ccc(-c6cncc(NC(=O)C7CCCCC7)c6)nc45)nc23)c1", "LABEL_VALUE": "condition not met"}
{"ITEM_SMILES": "Cc1ccncc1-c1ccc2[nH]nc(-c3cc4c(-c5cccnc5)cncc4[nH]3)c2n1", "LABEL_VALUE": "condition not met"}

Asked: Test whether the compound "Cc1ccc(-c2cncc3[nH]c(-c4n[nH]c5cnc(-c6cncc(NC(=O)C7CCC7)c6)cc45)nc23)s1" records pEC50 of 6 or higher.
Given back: condition met

* * *

- ASSAY_TARGET: Dual specificity tyrosine-phosphorylation-regulated kinase 1A (Homo sapiens)
- PROTOCOL_NOTES: Inhibition of recombinant DYRK1A (unknown origin) using Ser/Thr 18 peptide as substrate incubated for 1 hr in presence of ATP by FRET assay
MEASUREMENT_LABEL: pEC50
pEC50 is defined as minus the log10 of a concentration measured in mol/L.

In the examples that follow, each entry is paired with its recorded pEC50.
{"ITEM_SMILES": "O=C(Nc1cncc(-c2cnc3[nH]nc(-c4nc5c(-c6cccc(F)c6)cncc5[nH]4)c3c2)c1)C1CC1", "pEC50": 7.12}
{"ITEM_SMILES": "CN(C)c1cncc(-c2cnc3[nH]nc(-c4cc5c(-c6ccncc6)cncc5[nH]4)c3c2)c1", "pEC50": 7.85}
{"ITEM_SMILES": "O=C(Nc1ccc(OC(CO)CO)nc1)c1n[nH]c2ccc(-c3cncc(CN4CCCCC4)c3)cc12", "pEC50": 8.40}

Asked: Name the recorded pEC50 of the item "CC(C)Nc1cncc(-c2cnc3[nH]nc(-c4nc5c(-c6cccc(F)c6)cncc5[nH]4)c3c2)c1" in your answer.
Given back: 7.70

Asked: Name the recorded pEC50 of the item "CN(C)CCNc1cc(F)cc(-c2cccc3[nH]c(-c4n[nH]c5ccc(-c6cncc(CN7CCCCC7)c6)nc45)cc23)c1" in your answer.
Given back: 7.40

Asked: Name the recorded pEC50 of the item "CC(C)Nc1cncc(-c2ccc3[nH]nc(-c4cc5c(-c6cccnc6)cccc5[nH]4)c3c2)c1" in your answer.
Given back: 7.08

Asked: Name the recorded pEC50 of the item "Cc1n[nH]c2ccc(-c3cncc(N[C@H]4CC[C@H](O)CC4)n3)cc12" in your answer.
Given back: 9.00

Asked: Name the recorded pEC50 of the item "c1cncc(-c2ccc3[nH]nc(-c4nc5c(N6CCOCC6)cncc5[nH]4)c3c2)c1" in your answer.
Given back: 8.70

Asked: Name the recorded pEC50 of the item "CC(C)CC(=O)Nc1cncc(-c2cc3c(-c4nc5c(-c6ccoc6)cccc5[nH]4)n[nH]c3cn2)c1" in your answer.
Given back: 7.42

Asked: Name the recorded pEC50 of the item "CC(C)(C)C(=O)Nc1cncc(-c2ccc3[nH]nc(-c4nc5c(-c6ccc(F)cc6)cncc5[nH]4)c3n2)c1" in your answer.
Given back: 7.19

Asked: Name the recorded pEC50 of the item "Cc1ccc(-c2cncc3[nH]c(-c4n[nH]c5cnc(-c6cncc(NC(=O)C7CCC7)c6)cc45)nc23)s1" in your answer.
Given back: 7.92

* * *

- ASSAY_TARGET: Dual specificity tyrosine-phosphorylation-regulated kinase 1A (Homo sapiens)
- PROTOCOL_NOTES: Inhibition of recombinant DYRK1A (unknown origin) using Ser/Thr 18 peptide as substrate incubated for 1 hr in presence of ATP by FRET assay
MEASUREMENT_LABEL: pEC50
pEC50 is defined as minus the log10 of a concentration measured in mol/L.

{"ITEM_SMILES": "CN(C)Cc1cncc(-c2cnc3[nH]nc(-c4nc5c(-c6cccs6)cncc5[nH]4)c3c2)c1", "pEC50": 8.05}

Asked: Name the recorded pEC50 of the item "CC(C)C(=O)Nc1cncc(-c2cc3c(-c4cc5c(-c6cccnc6)cccc5[nH]4)n[nH]c3cn2)c1" in your answer.
Given back: 7.11

Asked: Name the recorded pEC50 of the item "c1cncc(-c2ccnc3[nH]c(-c4n[nH]c5cnc(-c6cncc(CN7CCCC7)c6)cc45)cc23)c1" in your answer.
Given back: 7.14

Asked: Name the recorded pEC50 of the item "CC(C)CC(=O)Nc1cncc(-c2ccc3[nH]nc(-c4nc5c(-c6cccc(F)c6)ccnc5[nH]4)c3c2)c1" in your answer.
Given back: 7.37

Asked: Name the recorded pEC50 of the item "CCCCC(=O)Nc1cncc(-c2ccc3[nH]nc(-c4nc5c(-c6cc(F)cc(NCCN(C)C)c6)ccnc5[nH]4)c3n2)c1" in your answer.
Given back: 7.74

Asked: Name the recorded pEC50 of the item "O=C(Nc1cncc(-c2cc3c(-c4cc5cnccc5[nH]4)n[nH]c3cn2)c1)C1CCCCC1" in your answer.
Given back: 8.52

Asked: Name the recorded pEC50 of the item "CN1CCN(c2nccc3[nH]c(-c4n[nH]c5ccc(-c6cncc(NC(=O)CC7CCNCC7)c6)cc45)cc23)CC1" in your answer.
Given back: 7.60

Asked: Name the recorded pEC50 of the item "O=C(Nc1c[nH]nc1C(=O)Nc1cncc(-c2cccc(F)c2)c1)c1cncc(F)c1" in your answer.
Given back: 7.20

* * *

In this section, each of the molecules is paired with its reported pEC50.
- ASSAY_TARGET: Dual specificity tyrosine-phosphorylation-regulated kinase 1A (Homo sapiens)
- PROTOCOL_NOTES: Inhibition of recombinant DYRK1A (unknown origin) using Ser/Thr 18 peptide as substrate incubated for 1 hr in presence of ATP by FRET assay
pEC50 is defined as minus the log10 of a concentration measured in mol/L.

{"ITEM_SMILES": "Fc1ccc(-c2nccc3[nH]c(-c4n[nH]c5cnc(-c6cncc(CN7CCC(F)(F)C7)c6)cc45)cc23)cc1", "EXPERIMENTAL_VALUE": 8.00}
{"ITEM_SMILES": "O=C(Nc1ccc(N2CC(CO)(CO)C2)nc1)c1n[nH]c2ccc(-c3cncc(CN4CCCCC4)c3)cc12", "EXPERIMENTAL_VALUE": 8.70}

Asked: Name the recorded pEC50 of the item "O=C(Nc1ccc(C(=O)N2CCCC2)nc1)c1n[nH]c2ccc(-c3cncc(CN4CCCCC4)c3)cc12" in your answer.
Given back: 9.00

* * *

In this section, each of the compounds is paired with its reported EC50.
- ASSAY_TARGET: UniProtKB P49760
- Sequence (P49760 whole entry): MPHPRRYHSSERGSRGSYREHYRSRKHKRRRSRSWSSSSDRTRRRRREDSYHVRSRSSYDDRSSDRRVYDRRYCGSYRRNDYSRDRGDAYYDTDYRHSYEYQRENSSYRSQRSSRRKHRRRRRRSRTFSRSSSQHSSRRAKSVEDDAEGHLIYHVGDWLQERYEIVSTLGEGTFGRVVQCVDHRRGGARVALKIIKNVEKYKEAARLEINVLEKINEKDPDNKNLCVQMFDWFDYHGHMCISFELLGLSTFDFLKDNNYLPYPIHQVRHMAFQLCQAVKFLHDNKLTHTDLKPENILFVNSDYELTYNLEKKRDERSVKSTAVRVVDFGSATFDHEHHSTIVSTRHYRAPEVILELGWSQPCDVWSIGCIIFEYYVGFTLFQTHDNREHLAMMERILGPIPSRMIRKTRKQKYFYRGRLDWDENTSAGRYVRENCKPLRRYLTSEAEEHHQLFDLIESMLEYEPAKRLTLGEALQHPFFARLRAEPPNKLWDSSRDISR
- PROTOCOL_NOTES: Inhibition of recombinant CLK2 (unknown origin) using Ser/Thr 6 peptide as substrate incubated for 1 hr in presence of ATP by FRET assay
Entry rule: numbers only, all in nM.

In the examples that follow, each entry is paired with its recorded EC50.
{"ITEM_SMILES": "O=C(N[C@H]1C[C@@H]1c1ccccc1)c1n[nH]c2ccc(-c3cccnc3)cc12", "EC50, nM": 10}
{"ITEM_SMILES": "O=C(Nc1ccc(N2CCC(F)(F)C2)nc1)c1n[nH]cc1C#Cc1cccnc1", "EC50, nM": 32}
{"ITEM_SMILES": "CN(C)CCNc1cc(F)cc(-c2cccc3[nH]c(-c4n[nH]c5cnc(-c6cncc(NC(=O)C(C)(C)C)c6)cc45)cc23)c1", "EC50, nM": 6}
{"ITEM_SMILES": "Cc1n[nH]c2cc(F)c(-c3cncc(O[C@H]4CCNC[C@@H]4F)n3)cc12", "EC50, nM": 1}

Asked: Please look at "Cc1n[nH]c2ccc(-c3cncc(NC4CCNCC4)n3)cc12" and tell me its recorded EC50 on UniProtKB P49760.
Given back: 1
